assay: activity coefficient (dimensionless); of the first substance listed, at infinite dilution; xn = mol fraction of the nth substance listed; conditions: 363.15 K; 101 kPa; Liquid; Chromatography; x1 = 0
value.kind: activity coefficient
Please give only the number in your answer, with no unit.

Need activity coefficient, item CCCCCCC [heptane] + CCCCn1cc[n+](C)c1.O=S(=O)([O-])C(F)(F)F 38.8

Need activity coefficient, item C1=CCCCC1 [cyclohexene] + CCCCn1cc[n+](C)c1.O=S(=O)([O-])C(F)(F)F 8.82

Need activity coefficient, item Cc1cccc(C)c1 [1,3-dimethylbenzene] + CCCCn1cc[n+](C)c1.O=S(=O)([O-])C(F)(F)F 4.07

Need activity coefficient, item C1CCCCC1 [cyclohexane] + CCCCn1cc[n+](C)c1.O=S(=O)([O-])C(F)(F)F 14.6

----------
Would you mind telling me the reported activity coefficient of each entry?
test: activity coefficient (dimensionless); of the first substance listed, at infinite dilution; xn = mol fraction of the nth substance listed; conditions: 323.15 K; 101 kPa; Liquid; Chromatography; x1 = 0
Please give only the number in your answer, with no unit.

Need activity coefficient, item CC1CCCCC1 [methylcyclohexane] + CCCCn1cc[n+](C)c1.O=S(=O)([O-])C(F)(F)F 26.8

Need activity coefficient, item Cc1cccc(C)c1 [1,3-dimethylbenzene] + CCCCn1cc[n+](C)c1.O=S(=O)([O-])C(F)(F)F 4.58

Need activity coefficient, item CCCCCCC [heptane] + CCCCn1cc[n+](C)c1.O=S(=O)([O-])C(F)(F)F 48.5

Need activity coefficient, item Cc1ccc(C)cc1 [1,4-dimethylbenzene] + CCCCn1cc[n+](C)c1.O=S(=O)([O-])C(F)(F)F 4.33

Need activity coefficient, item C1CCCCC1 [cyclohexane] + CCCCn1cc[n+](C)c1.O=S(=O)([O-])C(F)(F)F 19.2

Need activity coefficient, item CCCCCCCC [octane] + CCCCn1cc[n+](C)c1.O=S(=O)([O-])C(F)(F)F 74.1

Need activity coefficient, item CCCCCCCCCC [decane] + CCCCn1cc[n+](C)c1.O=S(=O)([O-])C(F)(F)F 576

Need activity coefficient, item CCCCC [pentane] + CCCCn1cc[n+](C)c1.O=S(=O)([O-])C(F)(F)F 23.9

----------
Would you mind telling me the reported activity coefficient of each entry?
experiment: activity coefficient (dimensionless); of the first substance listed, at infinite dilution; xn = mol fraction of the nth substance listed; conditions: 363.15 K; 101 kPa; Liquid; Chromatography; x1 = 0

Need activity coefficient, item CCCCCCCCC [nonane] + CCCCn1cc[n+](C)c1.O=S(=O)([O-])C(F)(F)F 75.9

Need activity coefficient, item CCCCCCCC [octane] + CCCCn1cc[n+](C)c1.O=S(=O)([O-])C(F)(F)F 55.1

Need activity coefficient, item CCCCCC [hexane] + CCCCn1cc[n+](C)c1.O=S(=O)([O-])C(F)(F)F 27.6

Need activity coefficient, item CCCCCCCCCC [decane] + CCCCn1cc[n+](C)c1.O=S(=O)([O-])C(F)(F)F 306

Need activity coefficient, item CC1CCCCC1 [methylcyclohexane] + CCCCn1cc[n+](C)c1.O=S(=O)([O-])C(F)(F)F 21.6

Need activity coefficient, item Cc1ccc(C)cc1 [1,4-dimethylbenzene] + CCCCn1cc[n+](C)c1.O=S(=O)([O-])C(F)(F)F 4.42

Need activity coefficient, item CCc1ccccc1 [ethylbenzene] + CCCCn1cc[n+](C)c1.O=S(=O)([O-])C(F)(F)F 4.47

Need activity coefficient, item CCCCC [pentane] + CCCCn1cc[n+](C)c1.O=S(=O)([O-])C(F)(F)F 19.9
